assayed system: Vitamin D3 receptor (Homo sapiens, UniProt P11473)
Sequence (P11473 whole entry, the tested form may be a part): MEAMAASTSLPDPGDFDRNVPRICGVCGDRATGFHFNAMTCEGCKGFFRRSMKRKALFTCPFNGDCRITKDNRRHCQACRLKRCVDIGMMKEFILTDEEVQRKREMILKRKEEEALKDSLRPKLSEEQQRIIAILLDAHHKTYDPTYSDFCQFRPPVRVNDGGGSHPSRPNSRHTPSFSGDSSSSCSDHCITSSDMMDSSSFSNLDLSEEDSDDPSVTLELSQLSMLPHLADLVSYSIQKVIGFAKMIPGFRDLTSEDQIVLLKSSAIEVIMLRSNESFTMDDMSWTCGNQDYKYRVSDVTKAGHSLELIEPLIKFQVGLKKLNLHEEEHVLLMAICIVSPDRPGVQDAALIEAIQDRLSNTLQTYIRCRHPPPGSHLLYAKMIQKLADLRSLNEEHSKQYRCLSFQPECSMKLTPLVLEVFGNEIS
assay summary: Antagonist activity at CMV-fused VDR (unknown origin) expressed in HEK293T cells assessed as reduction in 24-hydroxylase promoter mediated transcriptional activity by luciferase reporter gene assay
Format: cell-based
run parameters: read-out: IC50
Record form. Attribute: pIC50. Fill in for each entry.
One number for each entry, as −log10 of the molar value.

- mol: "COC(=O)CCc1ccc(OCc2oc(-c3ccccc3OC)nc2C)cc1"
  numeric value: 5.00

Would you be so kind as to report pIC50 for each listed record?
1. COc1cccc(-c2nc(C)c(COc3cccc(C(=O)O)c3)o2)c1
2. COC(=O)c1cccc(OCc2oc(-c3ccccc3OC)nc2C)c1
3. COc1cccc(-c2nc(C)c(COc3ccc(CC(=O)O)cc3)o2)c1
4. COC(=O)c1ccc(OCc2oc(-c3ccccc3OC)nc2C)cc1

Completion:
1. 4.48
2. 5.60
3. 5.44
4. 5.31

Could I get pIC50 for every one of these entries?
1. COc1cccc(-c2nc(C)c(COc3ccccc3C(=O)O)o2)c1
2. COC(=O)c1ccc(OCc2oc(-c3cccc(OC)c3)nc2C)cc1
3. COC(=O)c1ccccc1OCc1oc(-c2cccc(OC)c2)nc1C
4. COC(=O)CCc1ccc(OCc2oc(-c3cccc(OC)c3)nc2C)cc1
5. COC(=O)Cc1ccc(OCc2oc(-c3cccc(OC)c3)nc2C)cc1

Completion:
1: 4.39; 2: 5.25; 3: 5.17; 4: 5.54; 5: 6.18

###

assayed system: Vitamin D3 receptor (Homo sapiens)
assay summary: Antagonist activity at VP16-fused VDR-LBD (unknown origin) expressed in HEK293T cells assessed as inhibition of ligand-induced GAL4-fused SRC1 coactivator recruitment by two-hybrid luciferase reporter gene assay
Format: cell-based
Label 1 when IC50 < 20 µM; otherwise 0.

Example entries begin here.
- mol: "COC(=O)Cc1ccc(OCc2oc(-c3cccc(OC)c3)nc2C)cc1"
  category label: 1
- mol: "COC(=O)CCc1ccc(OCc2oc(-c3ccccc3OC)nc2C)cc1"
  category label: 1
- mol: "COc1ccccc1-c1nc(C)c(COc2ccc(C(=O)O)cc2)o1"
  category label: 0
- mol: "COc1cccc(-c2nc(C)c(COc3ccccc3C(=O)O)o2)c1"
  category label: 0

Prompt: Given the entry COc1ccccc1-c1nc(C)c(COc2ccc(CC(=O)O)cc2)o1 , would its reported IC50 be below 20 µM?
Completion: 0

Prompt: Threshold test, IC50 < 20 µM: COc1ccccc1-c1nc(C)c(COc2cccc(C(=O)O)c2)o1
Completion: 0

Prompt: In the record for COC(=O)c1cccc(OCc2oc(-c3ccccc3OC)nc2C)c1 , is IC50 less than 20 µM?
Completion: 1

Prompt: Is IC50 of COc1cccc(-c2nc(C)c(COc3ccc(CC(=O)O)cc3)o2)c1 strictly below 20 µM?
Completion: 0

Prompt: For this molecule, is IC50 lower than 20 µM? COC(=O)CCc1ccc(OCc2oc(-c3cccc(OC)c3)nc2C)cc1
Completion: 1

###

assayed system: Retinoic acid receptor RXR-alpha (Homo sapiens, UniProt P19793)
Sequence (P19793 whole entry, the tested form may be a part): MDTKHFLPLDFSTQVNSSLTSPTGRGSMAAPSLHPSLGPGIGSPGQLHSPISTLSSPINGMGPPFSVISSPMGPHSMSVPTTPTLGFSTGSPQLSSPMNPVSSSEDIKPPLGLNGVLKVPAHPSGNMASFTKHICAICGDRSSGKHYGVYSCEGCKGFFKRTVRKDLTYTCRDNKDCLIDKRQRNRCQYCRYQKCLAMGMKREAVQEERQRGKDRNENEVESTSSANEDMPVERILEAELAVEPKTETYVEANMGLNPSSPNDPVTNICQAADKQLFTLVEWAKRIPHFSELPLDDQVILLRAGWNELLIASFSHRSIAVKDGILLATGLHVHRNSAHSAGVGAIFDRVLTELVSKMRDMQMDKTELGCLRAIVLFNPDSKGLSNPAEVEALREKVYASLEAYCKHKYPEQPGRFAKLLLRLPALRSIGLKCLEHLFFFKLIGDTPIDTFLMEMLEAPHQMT
assay summary: Antagonist activity at CMV-fused RXRalpha-LBD-GAL4-DBD (unknown origin) expressed in HEK293T cells assessed as inhibition of bexarotene-induced receptor transactivation after 16 hrs by bright-Glo luciferase reporter gene assay
Type: cell-based
readout kind: pIC50
Numbers only, as −log10 of the molar value.

Example compounds with recorded pIC50:
- mol: "COC(=O)c1cccc(OCc2oc(-c3ccccc3OC)nc2C)c1"
  pIC50: 4.95
- mol: "COC(=O)Cc1ccc(OCc2oc(-c3cccc(OC)c3)nc2C)cc1"
  pIC50: 5.70
- mol: "COC(=O)c1ccc(OCc2oc(-c3cccc(OC)c3)nc2C)cc1"
  pIC50: 5.34

Prompt: Please look up its pIC50: COC(=O)Cc1ccc(OCc2oc(-c3ccccc3OC)nc2C)cc1
Completion: 5.36

###

assayed system: Estrogen receptor (Homo sapiens, UniProt P03372)
Sequence (P03372 whole entry): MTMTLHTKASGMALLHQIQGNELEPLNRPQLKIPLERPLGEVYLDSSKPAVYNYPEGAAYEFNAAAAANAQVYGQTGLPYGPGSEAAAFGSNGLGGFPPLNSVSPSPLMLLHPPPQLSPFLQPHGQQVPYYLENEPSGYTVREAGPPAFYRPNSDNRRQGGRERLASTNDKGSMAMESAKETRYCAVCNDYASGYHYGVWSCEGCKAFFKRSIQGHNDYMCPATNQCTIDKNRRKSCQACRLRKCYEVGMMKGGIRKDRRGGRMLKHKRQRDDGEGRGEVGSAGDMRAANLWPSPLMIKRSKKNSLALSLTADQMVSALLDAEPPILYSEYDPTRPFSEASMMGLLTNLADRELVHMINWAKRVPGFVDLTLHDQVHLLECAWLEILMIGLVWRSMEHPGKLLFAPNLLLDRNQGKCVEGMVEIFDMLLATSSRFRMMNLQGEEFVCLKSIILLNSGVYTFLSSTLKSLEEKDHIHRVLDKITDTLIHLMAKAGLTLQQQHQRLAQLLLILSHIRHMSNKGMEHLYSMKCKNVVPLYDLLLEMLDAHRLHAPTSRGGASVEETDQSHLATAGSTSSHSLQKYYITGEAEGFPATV
assay summary: Antagonist activity at CMV-fused ERalpha-LBD-GAL4-DBD (unknown origin) expressed in HEK293T cells assessed as inhibition of estradiol-induced receptor transactivation after 16 hrs by bright-Glo luciferase reporter gene assay
Please respond with reported IC50 for every item in the list.
Give bare numbers, in µM.

Known results for molecules:
- mol: "COC(=O)c1ccc(OCc2oc(-c3cccc(OC)c3)nc2C)cc1"
  assayed system: "Estrogen receptor (Homo sapiens, UniProt P03372)"
  quantity unit: "µM"
  IC50: 4.7
- mol: "COC(=O)Cc1ccc(OCc2oc(-c3ccccc3OC)nc2C)cc1"
  assayed system: "Estrogen receptor (Homo sapiens, UniProt P03372)"
  quantity unit: "µM"
  IC50: 4.1
- mol: "COC(=O)c1cccc(OCc2oc(-c3ccccc3OC)nc2C)c1"
  assayed system: "Estrogen receptor (Homo sapiens, UniProt P03372)"
  quantity unit: "µM"
  IC50: 5.2

// below: IC50 requested for another molecule
Prompt: Which IC50 is reported for this molecule? COC(=O)Cc1ccc(OCc2oc(-c3cccc(OC)c3)nc2C)cc1
Completion: 1.7

###

System: HEK-293T
assay summary: Cytotoxicity against HEK293T cells assessed as decrease in cell viability at 100 uM after 18 hrs by Cell Titer-Glo based luminescence assay relative to control
run parameters: human
readout kind: Activity

- mol: "COc1ccccc1-c1nc(C)c(COc2ccc(C(=O)O)cc2)o1"
  assayed system: "HEK-293T"
  result: "Non-Toxic"
- mol: "COc1ccccc1-c1nc(C)c(COc2cccc(C(=O)O)c2)o1"
  assayed system: "HEK-293T"
  result: "Non-Toxic"
- mol: "COc1ccccc1-c1nc(C)c(COc2ccc(CC(=O)O)cc2)o1"
  assayed system: "HEK-293T"
  result: "Non-Toxic"

###

assayed system: Vitamin D3 receptor (Homo sapiens)
assay summary: Antagonist activity at VP16-fused VDR-LBD (unknown origin) expressed in HEK293T cells assessed as inhibition of ligand-induced GAL4-fused SRC1 coactivator recruitment by two-hybrid luciferase reporter gene assay
Assay type: cell-based
readout kind: IC50 (µM)
One number for each entry, in µM.

Reference set, count: 2
- mol: "COC(=O)c1ccccc1OCc1oc(-c2ccccc2OC)nc1C"
  quantity unit: "µM"
  IC50: 20.2
- mol: "COC(=O)c1ccc(OCc2oc(-c3cccc(OC)c3)nc2C)cc1"
  quantity unit: "µM"
  IC50: 8.89

For every item below, please supply its IC50.
1. COC(=O)c1ccc(OCc2oc(-c3ccccc3OC)nc2C)cc1
2. COC(=O)c1cccc(OCc2oc(-c3cccc(OC)c3)nc2C)c1
3. COc1cccc(-c2nc(C)c(COc3ccc(CCC(=O)O)cc3)o2)c1
4. COC(=O)Cc1ccc(OCc2oc(-c3ccccc3OC)nc2C)cc1
5. COc1cccc(-c2nc(C)c(COc3cccc(C(=O)O)c3)o2)c1
6. COC(=O)c1ccccc1OCc1oc(-c2cccc(OC)c2)nc1C

Completion:
1. 17.9
2. 17.1
3. 26.7
4. 11.1
5. 33.1
6. 15.4

###

assayed system: UniProt P11473
assay summary: Antagonist activity at VP16-fused VDR-LBD (unknown origin) expressed in HEK293T cells assessed as inhibition of ligand-induced GAL4-fused SRC1 coactivator recruitment by two-hybrid luciferase reporter gene assay
Assay type: cell-based
readout kind: IC50

- mol: "COc1ccccc1-c1nc(C)c(COc2ccccc2C(=O)O)o1"
  IC50: "> 80 µM"

Fill in IC50 for each of the 2 compounds listed.
1. COc1cccc(-c2nc(C)c(COc3ccc(C(=O)O)cc3)o2)c1
2. COc1ccccc1-c1nc(C)c(COc2ccc(CCC(=O)O)cc2)o1

Completion:
["> 80 µM", "> 100 µM"]

src = ChEMBL document CHEMBL4184110
